# test.description: Direct cytotoxicity, cell viability and IC50
# Format: cell-based
# condition.set: human; hep G2 cells, 24 hours
reported.property: IC50 (µM)
Give bare numbers, in µM.

Query block: Which value of IC50 has been reported for CN1CC=C(C2=CCN(C)CC2)CC1 in the records?
Result block: 1360

====

# test.description: Acute toxicity test and LD50 determination in mice, intraperitoneal injection
# Type: in vivo
# condition.set: mouse, in vivo, ip; mice, intraperitoneal injection, seventh day
reported.property: LD50 at 7 day
Write the figure, then the unit, nothing else.

Query block: Which value of LD50 at 7 day has been reported for CN1CC=C(C2=CCN(C)CC2)CC1 in the records?
Result block: 1000 mg/kg

====

# System: Hep G2 cells
# test.description: Direct cytotoxicity, cell viability and IC50
# Format: cell-based
# condition.set: hep G2 cells, 24 hours
reported.property: pIC50
Answers are plain numbers, as −log10 of the molar value.

Query block: Which value of pIC50 has been reported for C[n+]1ccc(-c2cc[n+](C)cc2)cc1.[Cl-].[Cl-] [PQ, reference compound] in the records?
Result block: 3.88

====

# test.description: Direct cytotoxicity, cell viability and IC50
# Assay type: cell-based
# condition.set: African green monkey; Cos-7 cells, 24 hours
reported.property: pIC50
Answers are plain numbers, as −log10 of the molar value.

Query block: Which value of pIC50 has been reported for CN1CC=C(C2=CCN(C)CC2)CC1 in the records?
Result block: 2.80

// data source = patent US20260215427A1
